Tested on: Lefty1
Assay: Lefty1 binders on small-molecule microarrays, primary screen, biochemical, small-molecule microarray, 635/667 nm fluorescence (AID 1139)
Details: small-molecule microarray binding, fluorescence 635/667; higher = more signal
Reported composite z-score values for a set of compounds
Keep the answer to the number alone.

>>> measured_result("CCOC(=O)[C@H](CC(C)C)NC(=O)CCC1CC(OC(=O)NCc2ccc3c(c2)OCO3)CC2(CCCC(COC(=O)NCCCN3CCCC3=O)O2)O1 (stereo not given in full)")
0.803
>>> measured_result("CO[C@H]1COC(=O)[C@@H]2CCCN2C(=O)CC=C[C@@H](C)[C@H](OC)COC(=O)[C@@H](OCc2ccccc2)C=C[C@@H]1C")
1.5
>>> measured_result("CCc1cc2c(nc1CC)CCN(CCC(C)=NOC[C@H]1O[C@H](c3ccccc3)C=C[C@@H]1Oc1ccc(OC)cc1)C2")
0.568
>>> measured_result("CO[C@H]1COC(=O)CC=C[C@@H](C)[C@H](NS(=O)(=O)c2ccc(C)cc2)COC(=O)CCC[C@@H]1C")
0.962
>>> measured_result("C=CC[C@@H]1C=C[C@H](ON=C2[C@H]3CCn4c(=O)n(-c5ccccc5)c(=O)n4[C@H]3[C@H](O)[C@@H]3O[C@H]23)[C@@H](CO)O1")
0.96

query: Look up composite z-score: C[C@@H]1NC(=O)[C@@H](C)COC(=O)[C@H](C)NC(=O)[C@@H](C)COC1=O
result: 0.389

query: // lookup composite z-score for CC(C)CON=C1C[C@@H](O)[C@@H](O)[C@@H]2[C@@H]3C(=O)N(Cc4ccc5c(c4)OCO5)C(=O)[C@@H]3CC[C@H]12
result: 0.831

query: Bench note: what composite z-score did CCOC(=O)[C@H](Cc1ccccc1)NC(=O)CCC1CC(OC(=O)NCc2ccc3c(c2)OCO3)CC2(CCCC(COC(=O)NCCc3ccccc3OC)O2)O1 (stereo not given in full) show?
result: 1.36

###

Assay: basal RPMI8226 viability, no added stimulus, profiling panel, cell-based, calcein-AM fluorescence, 48 h, PK04 Diversity Set (AID 1166);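 note: cells grown under basal conditions without added stimulus; test concentration not given here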
Conditions: RPMI8226 myeloma viability, higher = more signal
t if z-score is below -0.1. f if not; exact matches included in f.

Past entries and their recorded results:
>>> discrete_label("CON=Cc1ccc(C(=O)N2[C@H](c3ccc(C)cc3)[C@@H](C)CC[C@H]2C(=O)OC)cc1")
"f"
>>> discrete_label("COC(=O)[C@@H]1CC[C@@H](C)[C@H](c2ccc(Br)cc2)N1")
"f"
>>> discrete_label("CC(=O)OC[C@H]1O[C@H](C#Cc2ccccc2)C=C[C@@H]1OC(C)=O")
"t"
>>> discrete_label("C#CCCCON=C1[C@H]2CCn3c(=O)n(C)c(=O)n3[C@H]2[C@H](O)[C@@H]2O[C@H]12")
"t"
>>> discrete_label("CCOC(=O)[C@H](Cc1ccccc1)NC(=O)CCC1CC(OC(=O)NCCc2ccc(F)cc2)CC2(CCCC(COC(=O)NCCCN3CCCC3=O)O2)O1 (stereo not given in full)")
"t"

query: Threshold test, z-score < -0.1: CC(CCN1CCCCc2nc(C)c(C)cc21)=NO[C@@H](C)c1cn([C@H](CO)Cc2ccccc2)nn1
result: f

query: Dear reviewer, please state whether COc1ccc(C#C[C@@H]2C=C[C@H](OC(C)=O)[C@@H](COC(C)=O)O2)cc1 has z-score strictly beneath -0.1.
result: t

query: Confirm or reject: z-score of O=C1[C@H]2[C@H]3[C@H](O)[C@H](O)CC(=NOC[C@@H](O)COCc4ccco4)[C@H]3CC[C@H]2C(=O)N1Cc1ccccc1 lies strictly below -0.1
result: t

query: Please state whether z-score is below -0.1 for O=C1C=C[C@@H](O)[C@@H]2[C@@H]3C(=O)N(C[C@@H]4CCCO4)C(=O)[C@@H]3CC[C@@H]12
result: f

query: Given the entry CCOC(=O)NN=C1C[C@@H](O)[C@@H](O)[C@@H]2[C@@H]3C(=O)N([C@@H](C)c4ccccc4)C(=O)[C@@H]3CC[C@@H]12 , would its reported z-score be below -0.1?
result: t

query: Identify whether the molecule CC(=O)OC[C@H]1O[C@H](CCON=C2[C@H]3CCn4c(=O)n(-c5ccccc5)c(=O)n4[C@H]3[C@H](O)[C@@H]3O[C@H]23)C=C[C@@H]1OC(C)=O records z-score below -0.1.
result: t

query: Here's an entry: COC(=O)[C@@H]1CC[C@H](C)[C@@H](c2ccc(C)cc2)N1C(=O)c1ccc(C=NO[C@H](C)c2cn([C@H](CO)Cc3ccccc3)nn2)cc1 . Is its z-score below -0.1?
result: t

query: Answer whether the molecule COC(=O)CC=C[C@@H](C)[C@@H](C=NO[C@@H]1O[C@H](COC(C)=O)[C@@H](OC(C)=O)[C@H](OC(C)=O)[C@H]1OC(C)=O)OC has z-score strictly less than -0.1
result: f

query: Hello, I'm reviewing records and need to know if z-score of COc1ccc(COC(=O)NN=C2C[C@@H](O)[C@@H](O)[C@@H]3[C@@H]4C(=O)N(Cc5ccccc5)C(=O)[C@@H]4CC[C@H]23)cc1 is below -0.1. Could you check?
result: t

query: Consider CCOC(=O)NN=C1C[C@@H](O)[C@@H](O)[C@@H]2[C@@H]3C(=O)N(C(C)(C)C)C(=O)[C@@H]3CC[C@H]12 . Does its z-score lie strictly below -0.1?
result: f

###

Target: Alpha-bungarotoxin (Bungarus multicinctus) (UniProt P60615)
Sequence (P60615 whole entry, looked up): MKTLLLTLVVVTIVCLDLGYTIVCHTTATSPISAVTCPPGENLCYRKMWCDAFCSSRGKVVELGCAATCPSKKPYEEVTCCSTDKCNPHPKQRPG
Assay: alpha-bungarotoxin binders on microarray, profiling panel, artefact control for SMM control protein annotation, biochemical, small-molecule microarray, Alexa647 label, 635/667 nm fluorescence (AID 1117)
Details: alpha-BTX-A647 binding fluorescence, higher = more signal
# key: entry, value: composite z-score
Answer with a bare number; do not write a unit.

>>> measured_result("O=C(C=Cc1ccc2c(c1)OCO2)c1ccc(F)cc1")
0.444
>>> measured_result("C#CCCCON=C1C[C@@H](O)[C@@H](O)[C@@H]2[C@@H]3C(=O)N(c4ccc(F)cc4F)C(=O)[C@@H]3CC[C@H]12")
0.239
>>> measured_result("CCCCC#C[C@@H]1C=C[C@H](Oc2ccc(C(=O)OC)cc2)[C@@H](COC(=O)OCC)O1")
0.807
>>> measured_result("CCOC(=O)[C@H](Cc1ccccc1)NC(=O)CCC1CC(OC(=O)NCCc2ccc(F)cc2)CC2(CCCC(COC(=O)NCc3ccccc3)O2)O1 (stereo not given in full)")
0.154
>>> measured_result("CCCCc1nc2c(c3c1C[C@H](C)OC3)CN(CCOc1ccccc1)CC2")
0.672

query: Consider the compound shown here: COC(=O)[C@@H]1CC[C@H](C)[C@@H](c2ccc(C)cc2)N1C(=O)c1ccc(C=NO[C@H](C)c2cn([C@H](CO)Cc3ccccc3)nn2)cc1 What is its recorded composite z-score?
result: 0.0997

query: Returns the measured composite z-score for the input compound. Input: C#CCCCON=C1C[C@@H](O)[C@@H](O)[C@@H]2[C@@H]3C(=O)N(CCC(=O)OCC)C(=O)[C@@H]3CC[C@H]12
result: 0.401

query: Item C#CCCCON=C1C[C@@H](O)[C@@H](O)[C@@H]2[C@@H]3C(=O)N(c4ccc(F)cc4F)C(=O)[C@@H]3CC[C@@H]12 has what recorded composite z-score?
result: 0.155

query: Quick one: composite z-score of COC(=O)[C@@H]1CC[C@H](C)[C@@H](c2ccc(C)cc2)N1C(=O)c1ccc(C=NO[C@H](C)c2cn([C@@H]3COC[C@H]3O)nn2)cc1 ?
result: -0.0105

query: Given the compound CCN1C(=O)[C@H]2[C@H]3[C@H](O)[C@H](O)CC(=NOCC(C)C)[C@@H]3CC[C@H]2C1=O , what is its reported composite z-score?
result: 0.13

query: What value of composite z-score has been reported for the following compound? Cc1ccc(S(=O)(=O)n2c3ccccc3c3nnc(C(=O)c4ccccc4)nc32)cc1
result: -0.306

query: // lookup composite z-score for CCOC(=O)[C@H](CC(C)C)NC(=O)CCC1CC(OC(=O)NCCc2ccc(F)cc2)CC2(CCCC(COC(=O)NCCC(C)C)O2)O1 (stereo not given in full)
result: 1.21

query: What composite z-score value was documented for this compound, CC(CCC(=O)OC[C@H]1O[C@H](C#Cc2ccccc2)C=C[C@@H]1Oc1ccc(C)cc1)=NO[C@H](C)c1cn([C@H](CO)Cc2ccccc2)nn1 ?
result: -0.0686

query: What value of measured composite z-score is listed for CCOC(=O)NN=C1C[C@@H](O)[C@@H](O)[C@@H]2[C@@H]3C(=O)N([C@@H](C)c4ccccc4)C(=O)[C@@H]3CC[C@@H]12 ?
result: -0.778

Reference source for all entries: PubChem BioAssay
